assayed-target: PI3K-δ (PI3K(p1108/p857) (h)) (Homo sapiens, UniProt O00329)
Sequence (O00329 whole entry): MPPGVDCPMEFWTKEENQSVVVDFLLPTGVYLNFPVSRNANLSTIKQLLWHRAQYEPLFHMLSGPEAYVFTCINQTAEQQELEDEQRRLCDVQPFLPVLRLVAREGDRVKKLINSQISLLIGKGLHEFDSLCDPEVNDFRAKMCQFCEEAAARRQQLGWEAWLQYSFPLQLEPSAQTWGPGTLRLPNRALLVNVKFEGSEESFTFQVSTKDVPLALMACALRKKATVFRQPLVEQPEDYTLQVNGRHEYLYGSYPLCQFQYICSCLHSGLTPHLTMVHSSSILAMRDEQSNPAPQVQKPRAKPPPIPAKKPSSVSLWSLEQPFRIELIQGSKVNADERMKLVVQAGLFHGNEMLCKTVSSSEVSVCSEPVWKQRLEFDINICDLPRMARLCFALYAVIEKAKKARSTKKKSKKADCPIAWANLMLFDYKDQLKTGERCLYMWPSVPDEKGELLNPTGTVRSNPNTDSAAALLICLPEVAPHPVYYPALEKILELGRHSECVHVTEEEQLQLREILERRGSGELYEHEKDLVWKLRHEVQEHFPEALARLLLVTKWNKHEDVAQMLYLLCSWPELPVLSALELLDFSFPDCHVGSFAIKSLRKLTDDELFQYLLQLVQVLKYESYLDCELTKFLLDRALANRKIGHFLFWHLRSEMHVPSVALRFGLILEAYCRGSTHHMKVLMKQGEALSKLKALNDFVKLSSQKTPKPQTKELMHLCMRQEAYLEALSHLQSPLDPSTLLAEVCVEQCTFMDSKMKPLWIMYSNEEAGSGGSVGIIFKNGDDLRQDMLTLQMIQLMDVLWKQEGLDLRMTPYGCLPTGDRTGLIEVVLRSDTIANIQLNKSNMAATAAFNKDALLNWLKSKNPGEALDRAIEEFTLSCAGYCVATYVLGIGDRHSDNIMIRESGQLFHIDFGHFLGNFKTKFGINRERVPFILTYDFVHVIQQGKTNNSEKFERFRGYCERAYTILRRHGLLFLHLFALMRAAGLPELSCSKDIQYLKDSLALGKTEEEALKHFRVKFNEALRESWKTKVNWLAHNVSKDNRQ
Sequence (P27986 whole entry partner): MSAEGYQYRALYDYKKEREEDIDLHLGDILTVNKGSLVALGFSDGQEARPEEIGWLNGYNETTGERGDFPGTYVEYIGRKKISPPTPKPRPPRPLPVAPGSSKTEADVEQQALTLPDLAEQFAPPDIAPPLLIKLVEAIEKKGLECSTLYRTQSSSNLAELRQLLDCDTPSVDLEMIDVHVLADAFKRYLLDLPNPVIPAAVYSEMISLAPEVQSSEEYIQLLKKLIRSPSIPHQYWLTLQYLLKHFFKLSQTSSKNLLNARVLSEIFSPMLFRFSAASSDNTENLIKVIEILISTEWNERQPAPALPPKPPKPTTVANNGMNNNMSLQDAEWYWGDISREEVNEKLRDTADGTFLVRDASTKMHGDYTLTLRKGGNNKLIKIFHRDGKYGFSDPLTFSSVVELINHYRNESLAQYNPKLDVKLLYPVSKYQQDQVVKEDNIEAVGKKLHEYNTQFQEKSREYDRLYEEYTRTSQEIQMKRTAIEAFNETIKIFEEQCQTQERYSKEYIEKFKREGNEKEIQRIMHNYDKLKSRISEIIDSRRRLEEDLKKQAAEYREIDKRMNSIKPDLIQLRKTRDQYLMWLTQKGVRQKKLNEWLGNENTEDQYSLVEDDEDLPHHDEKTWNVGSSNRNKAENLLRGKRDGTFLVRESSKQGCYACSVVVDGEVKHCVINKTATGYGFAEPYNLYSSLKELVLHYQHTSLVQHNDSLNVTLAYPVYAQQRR
measurement-notes: Evaluation of inhibitory activity against PI3K-δ (HTRF kinase assay)
Assay type: biochemical
assay-conditions: compound concentration 0.01 μM; read-out: EXP_VALUE(% Inhibition) PI3K-δ 0.01 μM
property: inhibition at 0.01 µM (%)

1. C[C@H](Nc1ncnc2[nH]ccc(=O)c12)c1c(Cl)c2cccc(-c3ccc(N4CCNCC4)cc3)c2c(=O)n1-c1ccccc1: 92
2. C[C@H](Nc1ncnc2[nH]ccc(=O)c12)c1c(Cl)c2cccc(-c3ccc(SC(C)(C)C)cc3)c2c(=O)n1-c1ccccc1: 17
3. C[C@H](Nc1ncnc2[nH]ccc(=O)c12)c1c(Cl)c2cccc(-c3cnc(C(C)(C)C)nc3)c2c(=O)n1-c1ccccc1: 68

###

assayed-target: PI3K-δ (PI3K(p1108/p857) (h)) (Homo sapiens)
measurement-notes: Evaluation of inhibitory activity against PI3K-δ (HTRF kinase assay)
Assay type: biochemical
assay-conditions: compound concentration 0.01 μM; read-out: EXP_VALUE(% Inhibition) PI3K-δ 0.01 μM
property: inhibition at 0.01 µM (%)

1) COc1ccc(-c2cccc3c(Cl)c([C@H](C)Nc4ncnc5[nH]ccc(=O)c45)n(-c4ccccc4)c(=O)c23)cc1F: 85
2) C[C@H](Nc1ncnc2[nH]ccc(=O)c12)c1c(Cl)c2cccc(-c3cc(O)ncn3)c2c(=O)n1-c1ccccc1: 96
3) C[C@H](Nc1ncnc2[nH]ccc(=O)c12)c1c(Cl)c2cccc(-c3cccc(C=O)c3)c2c(=O)n1-c1ccccc1: 114
4) CCc1cccc2c(Cl)c([C@H](C)Nc3ncnc4[nH]ccc(=O)c34)n(-c3ccccc3)c(=O)c12: 95
5) Cc1cc(C#N)ccc1-c1cccc2c(Cl)c([C@H](C)Nc3ncnc4[nH]ccc(=O)c34)n(-c3ccccc3)c(=O)c12: 82
6) COCCOc1cccc2c(Cl)c([C@H](C)Nc3ncnc4[nH]ccc(=O)c34)n(-c3ccccc3)c(=O)c12: 26
7) C[C@H](Nc1ncnc2[nH]ccc(=O)c12)c1c(Cl)c2cccc(/C(N)=N/O)c2c(=O)n1-c1ccccc1: 109
8) C[C@H](Nc1ncnc2[nH]ccc(=O)c12)c1c(Br)c2cccc(-c3ccc(N(C)C)cc3)c2c(=O)n1-c1ccccc1: 51
9) C[C@H](Nc1ncnc2[nH]ccc(=O)c12)c1c(Cl)c2cccc(NS(=O)(=O)C3CC3)c2c(=O)n1-c1ccccc1: 41
10) C[C@H](Nc1ncnc2[nH]ccc(=O)c12)c1cc2cccc(-c3ccc(N(C)C)cc3)c2c(=O)n1-c1ccccc1: 67
11) C[C@H](Nc1ncnc2[nH]ccc(=O)c12)c1c(Cl)c2cccc(-c3ccc4c(ccn4C)c3)c2c(=O)n1-c1ccccc1: 73
12) C[C@H](Nc1ncnc2[nH]ccc(=O)c12)c1c(Cl)c2cccc(-c3ccc(C#N)cc3)c2c(=O)n1-c1ccccc1: 108
13) C[C@H](Nc1ncnc2[nH]ccc(=O)c12)c1c(Cl)c2cccc(-c3cccc(N4CCOCC4)c3)c2c(=O)n1-c1ccccc1: 40
14) C[C@H](Nc1ncnc2[nH]ccc(=O)c12)c1c(Cl)c2cccc(C(=O)NCc3ccco3)c2c(=O)n1-c1ccccc1: 105

###

assayed-target: PI3K-δ (PI3K(p1108/p857) (h)) (Homo sapiens)
measurement-notes: Evaluation of inhibitory activity against PI3K-δ (HTRF kinase assay)
Type: biochemical
assay-conditions: compound concentration 0.1 μM; read-out: EXP_VALUE(% Inhibition) PI3K-δ 0.1 μM
inhibition at 0.1 µM overview
property: inhibition at 0.1 µM (%)

1. C[C@H](Nc1ncnc2[nH]ccc(=O)c12)c1c(Cl)c2cccc(NCc3ccccc3)c2c(=O)n1-c1ccccc1: 68
2. C[C@H](Nc1ncnc2[nH]ccc(=O)c12)c1c(Cl)c2cccc(-c3cnc4c(c3)OCCO4)c2c(=O)n1-c1ccccc1: 94
3. C[C@H](Nc1ncnc2[nH]ccc(=O)c12)c1c(Cl)c2cccc(N3CCc4ccccc4C3)c2c(=O)n1-c1ccccc1: 108
4. C[C@H](Nc1ncnc2[nH]ccc(=O)c12)c1c(Cl)c2cccc(-c3ccc(Cl)cc3)c2c(=O)n1-c1ccccc1: 91
5. C[C@H](Nc1ncnc2[nH]ccc(=O)c12)c1c(Cl)c2cccc(-c3cnn(C4CC4)c3)c2c(=O)n1-c1ccccc1: 97
6. C[C@H](Nc1ncnc2[nH]ccc(=O)c12)c1c(Cl)c2cccc(-c3cccc(C=O)c3)c2c(=O)n1-c1ccccc1: 111
7. CCNc1cccc2c(Cl)c([C@H](C)Nc3ncnc4[nH]ccc(=O)c34)n(-c3ccccc3)c(=O)c12: 65
